- testDescription: The IC50-UVA is the dose of UVA light which in the presence of fixed drug concentration (20 uM) is necessary to induce a 50% inhibition of DNA synthesis by incubation at the ground state by keeping mammalian cells in the dark.
- Type: functional
parameterMeasured: log10 IC50 (log10 of the value in kJ m**-2)
Lab note - IC50 converted to log10 from values in kJ m**-2.

Take a look at these entries with their results.
{"columns": ["molecule", "log10 IC50"],
 "data": [
  ["Cc1cc(=O)oc2cc3oc4cc(CO)ccc4c3cc12", -0.32],
  ["O=c1ccc2c(CO)c3c(cc2o1)oc1ccccc13", 0.92],
  ["CCN(CC)Cc1ccc2c(c1)oc1cc3oc(=O)cc(C)c3cc12", 0.35]
]}

Required: log10 IC50, one value per molecule below.
1. O=c1ccc2cc3c(oc4ccccc43)c(CO)c2o1
2. O=c1oc2cc3oc4ccccc4c3cc2cc1CO
3. COc1c2occc2cc2ccc(=O)oc12
4. O=c1cc(CO)c2cc3c(cc2o1)oc1ccccc13
5. CCN(CC)Cc1c2oc(=O)ccc2cc2c1oc1ccccc12

[-0.01, 1.23, 0.56, -0.17, 0.97]

---

- Species: Cavia porcellus
- testDescription: Phototoxicity on guinea pig skin was calculated at concentration of 30 uM.cm-2 and UVA light dose 20 kJ.me-2.-- indicates no erythemia.
- Format: functional, organism-based

{"columns": ["molecule", "Intensity of erythemia"],
 "data": [
  ["O=c1cc(CO)c2cc3c(cc2o1)oc1ccccc13", "no erythemia"],
  ["Cc1cc(=O)oc2cc3oc4cc(CO)ccc4c3cc12", "no erythemia"],
  ["CCN(CC)Cc1cc2cc3c(cc2oc1=O)oc1ccccc13", "no erythemia"]
]}
